Where these numbers come from: PubChem BioAssay AID1159580

# protocol_description: chemical genetic growth profiling, strain panel (AID 1159580);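 note: tested at 20 µM; growth read once vehicle control cultures reached saturation at 30 °C; 1 = growth at the plate median or of vehicle wells; lower values mean less growth of the strain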
# test_parameters: S. cerevisiae deletion strains, growth OD, locus YHR030C, strain SLT2, stronger effect = lower value
Screen size: about 5,500 compounds; about 2,000 (36%) were called active. Another 18% or so got no clear call; they are omitted. The list shows a part of the results.
experimental_endpoint: normalized growth
Could you keep your reply to the number by itself?

Q: Sample CC(=O)OC1CC(OC(C)=O)C2(C)C(CC(OC(C)=O)C3(C)C4=CC(=O)OC(=O)C4(C)CCC32)C1(C)C (stereo not drawn) — what was its normalized growth?
Result: 0.999

Q: Sample COC(=O)/C(C)=C\CC12OC(C)(C)C3CC(C=C4C(=O)c5c(O)c6c(c(CCC(C)(C)Cl)c5OC431)OC1(C)CCC(=C(C)C)C6C1)C2=O (stereo not drawn) — what was its normalized growth?
Result: 1.02

Q: Sample CC(=O)OC1CC[C@@]2(C)C(CC[C@]3(C)C2CCC2C4CC(C)(C)CCC4(C(=O)O)CC[C@]23C)C1(C)C (stereo partly drawn) — what was its normalized growth?
Result: 1.01
